These entries and their values trace back to patent US20240308960A1.

Measured Agonist Activity (%), listed per entry for reference.
TESTED ON: Human orexin receptor type 2 (Homo sapiens, UniProt O43614)
Sequence (O43614 1-444): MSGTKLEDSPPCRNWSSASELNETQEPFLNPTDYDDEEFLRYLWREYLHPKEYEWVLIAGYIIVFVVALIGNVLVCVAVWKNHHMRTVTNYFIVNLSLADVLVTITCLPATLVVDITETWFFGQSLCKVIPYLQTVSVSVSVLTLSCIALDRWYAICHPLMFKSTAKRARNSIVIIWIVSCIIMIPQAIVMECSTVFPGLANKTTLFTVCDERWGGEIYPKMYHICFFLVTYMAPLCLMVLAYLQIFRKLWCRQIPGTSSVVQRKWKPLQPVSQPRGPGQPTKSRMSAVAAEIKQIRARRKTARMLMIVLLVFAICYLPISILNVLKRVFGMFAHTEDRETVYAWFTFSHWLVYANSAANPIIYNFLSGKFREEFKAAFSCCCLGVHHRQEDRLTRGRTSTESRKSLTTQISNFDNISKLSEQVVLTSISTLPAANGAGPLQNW
EXPERIMENTAL PROTOCOL: Test Example 1: agonist activity for orexin receptor type 2 (aequorin luminescence, intracellular calcium mobilization)
CONDITIONS USED: compound 10 μm; CHO cells transiently expressing human orexin receptor type 2 and apoaequorin; relative percentage of luminescence for the luminescence (100%) of Orexin A (100 μM)
METRIC NAME: Agonist Activity (%)

| COMPOUND | TESTED ON | OBSERVED RESULT |
| --- | --- | --- |
| CCc1nc(C2(C)CCN(C(=O)Nc3c(F)cccc3N3CCN(C(C)C)CC3)CC2)no1 | Human orexin receptor type 2 (Homo sapiens, UniProt O43614) | 156 |
| Cc1ccc(N2CCCN(C(=O)Nc3c(Cl)cccc3N3CCN(C(C)C)CC3)CC2)cc1 | Human orexin receptor type 2 (Homo sapiens, UniProt O43614) | 75 |
| CC(C)N1CCN(c2cccc(Cl)c2NC(=O)N2CCC(F)(c3noc(C4CC4)n3)CC2)CC1 | Human orexin receptor type 2 (Homo sapiens, UniProt O43614) | 179 |
| CC(C)[C@@H]1CO[C@H](c2cccc(Cl)c2NC(=O)N2CCC(C)(c3noc(C4CC4)n3)CC2)CN1 (racemic) | Human orexin receptor type 2 (Homo sapiens, UniProt O43614) | 184 |
| Cc1ccc(C2CCN(C(=O)Nc3ccccc3[C@@H]3CN[C@@H](C(C)C)CO3)CC2)cc1 | Human orexin receptor type 2 (Homo sapiens, UniProt O43614) | 72 |
| Cc1ccc(C2CCN(C(=O)Nc3c(F)cccc3C3CCN(C(C)C(F)F)CC3)CC2)cc1 (stereo not shown) | Human orexin receptor type 2 (Homo sapiens, UniProt O43614) | 44 |
| CC(C)N1CCN(c2cccc(Cl)c2NC(=O)N2CCC(C)(c3noc(C4CC4(C)C)n3)CC2)CC1 (stereo not shown) | Human orexin receptor type 2 (Homo sapiens, UniProt O43614) | 185 |
| Cc1ccc(C2CCN(C(=O)Nc3cccc(F)c3N3CCN(C(C)C)CC3)CC2)cc1 | Human orexin receptor type 2 (Homo sapiens, UniProt O43614) | 142 |
| Cc1ccc(C2CCN(C(=O)Nc3c(F)cccc3OC3CCN(C(C)C)CC3)CC2)cc1 | Human orexin receptor type 2 (Homo sapiens, UniProt O43614) | 75 |
| CC(C)N1CCN(c2cccc(F)c2NC(=O)N2CCC(C)(c3noc(C4(C)CC4)n3)CC2)CC1 | Human orexin receptor type 2 (Homo sapiens, UniProt O43614) | 156 |
| CC(C)c1ccc(-c2cccc(F)c2NC(=O)N2CCC(C)(c3cc(C4CC4)on3)CC2)cn1 | Human orexin receptor type 2 (Homo sapiens, UniProt O43614) | 158 |
| Cc1ccc(C2CCN(C(=O)Nc3c(F)cccc3C3=CCN(C(C)C)C3)CC2)cc1 | Human orexin receptor type 2 (Homo sapiens, UniProt O43614) | 121 |
| CC1(c2noc(C3CC3)n2)CCN(C(=O)Nc2c(Cl)cccc2C2=CCN(C3CCC3)CC2)CC1 | Human orexin receptor type 2 (Homo sapiens, UniProt O43614) | 150 |
| Cc1ccc(C2CCN(C(=O)Nc3c(F)cccc3C3=CCN(C(C)C)CC3)CC2)cc1 | Human orexin receptor type 2 (Homo sapiens, UniProt O43614) | 128 |
| CC1(c2noc(C3CC3)n2)CCN(C(=O)Nc2c(Cl)cccc2C2CCN(C3COC3)CC2)CC1 | Human orexin receptor type 2 (Homo sapiens, UniProt O43614) | 104 |
| Cc1nc(C2(C)CCN(C(=O)Nc3ccccc3N3CCN(C(C)C)CC3)CC2)no1 | Human orexin receptor type 2 (Homo sapiens, UniProt O43614) | 125 |
